- Test system: human ovarian cancer SK-OV-3
- Condition Details: D22; 24 mg/kg, D0-4 IV; SK-OV-3 xenograft in nude mice
Give T/C (%) D22 for every item shown.
Use % as the unit, but write only the number.

Exam item: Could you tell me which T/C (%) D22 is on file for CC(=O)O[C@H]1C(=O)[C@@]2(C)[C@H]([C@H](OC(=O)c3ccccc3)[C@]3(O)C[C@H](OC(=O)[C@H](OC(=O)[C@@H](F)CCN(C)C)[C@@H](NC(=O)c4ccccc4)c4ccccc4)C(C)=C1C3(C)C)[C@]1(OC(C)=O)CO[C@@H]1C[C@@H]2O.CS(=O)(=O)O [Compound C2] ?
Marked response: −61

Exam item: Could you tell me which T/C (%) D22 is on file for CCN(CC)CC[C@H](F)C(=O)O[C@@H](C(=O)O[C@H]1C[C@@]2(O)[C@@H](OC(=O)c3ccccc3)[C@@H]3[C@]4(OC(C)=O)CO[C@@H]4C[C@H](O)[C@@]3(C)C(=O)[C@H](OC(C)=O)C(=C1C)C2(C)C)[C@@H](NC(=O)c1ccccc1)c1ccccc1.O=C(O)/C=C/C(=O)O [Compound C19] ?
Marked response: −44

Exam item: Could you tell me which T/C (%) D22 is on file for CC(=O)O[C@H]1C(=O)[C@@]2(C)[C@H]([C@H](OC(=O)c3ccccc3)[C@]3(O)C[C@H](OC(=O)[C@H](OC(=O)C(F)CCN(C)C)[C@@H](NC(=O)c4ccccc4)c4ccccc4)C(C)=C1C3(C)C)[C@]1(OC(C)=O)CO[C@@H]1C[C@@H]2O.CS(=O)(=O)O (stereo partly drawn) [Compound C3] ?
Marked response: −64

Exam item: Could you tell me which T/C (%) D22 is on file for CC(=O)O[C@H]1C(=O)[C@@]2(C)[C@H]([C@H](OC(=O)c3ccccc3)[C@]3(O)C[C@H](OC(=O)[C@H](OC(=O)C(CCN(C)C)C(F)F)[C@@H](NC(=O)c4ccccc4)c4ccccc4)C(C)=C1C3(C)C)[C@]1(OC(C)=O)CO[C@@H]1C[C@@H]2O.Cl (stereo partly drawn) [Compound C22] ?
Marked response: −35

Exam item: Could you tell me which T/C (%) D22 is on file for CCN(C)CC[C@@H](F)C(=O)O[C@@H](C(=O)O[C@H]1C[C@@]2(O)[C@@H](OC(=O)c3ccccc3)[C@@H]3[C@]4(OC(C)=O)CO[C@@H]4C[C@H](O)[C@@]3(C)C(=O)[C@H](OC(C)=O)C(=C1C)C2(C)C)[C@@H](NC(=O)c1ccccc1)c1ccccc1.CS(=O)(=O)O [Compound C18] ?
Marked response: −53

Exam item: Could you tell me which T/C (%) D22 is on file for CC(=O)O[C@H]1C(=O)[C@@]2(C)[C@H]([C@H](OC(=O)c3ccccc3)[C@]3(O)C[C@H](OC(=O)[C@H](OC(=O)C(F)CCN(C)C(C)C)[C@@H](NC(=O)c4ccccc4)c4ccccc4)C(C)=C1C3(C)C)[C@]1(OC(C)=O)CO[C@@H]1C[C@@H]2O.Cl (stereo partly drawn) [Compound C20] ?
Marked response: −38

Exam item: Could you tell me which T/C (%) D22 is on file for CC(=O)OC1C(=O)C2(C)C(O)CC3OCC3(OC(C)=O)C2C(OC(=O)c2ccccc2)C2(O)CC(OC(=O)C(OC(=O)C(F)CC(C)N(C)C)C(NC(=O)c3ccccc3)c3ccccc3)C(C)=C1C2(C)C.O=C(O)C=CC(=O)O (stereo not drawn) [Compound C23] ?
Marked response: −23

Exam item: Could you tell me which T/C (%) D22 is on file for CC(=O)O[C@H]1C(=O)[C@@]2(C)[C@H]([C@H](OC(=O)c3ccccc3)[C@]3(O)C[C@H](OC(=O)[C@H](OC(=O)[C@H](F)CCN(C)C)[C@@H](NC(=O)c4ccccc4)c4ccccc4)C(C)=C1C3(C)C)[C@]1(OC(C)=O)CO[C@@H]1C[C@@H]2O.CS(=O)(=O)O [Compound C1] ?
Marked response: −63

Exam item: Could you tell me which T/C (%) D22 is on file for CC(=O)OC1C(=O)C2(C)C(O)CC3OCC3(OC(C)=O)C2C(OC(=O)c2ccccc2)C2(O)CC(OC(=O)C(OC(=O)C(CCN(C)C)C(F)(F)F)C(NC(=O)c3ccccc3)c3ccccc3)C(C)=C1C2(C)C.Cc1ccc(S(=O)(=O)O)cc1 (stereo not drawn) [Compound C21] ?
Marked response: −48
